IC50 listing for selected compounds.
test system: C4-2 cells; assay: Cell proliferation / growth inhibition in CRPC C4-2 cells; assay type: cell-based, human; details: Homo sapiens, C4-2, read-out: growth inhibition / proliferation IC50

| compound | tested_on | IC50 (nM) |
| --- | --- | --- |
| C#C[C@]1(O)CC[C@H]2[C@@H]3CCC4=CC(=O)CC[C@]4(C)[C@H]3CC[C@@]21C [Compound 2, Ethisterone] | C4-2 cells | 11 |
| C#C[C@]1(O)CC[C@H]2[C@@H]3[C@H](C)CC4=C(CCC(=O)C4)[C@H]3CC[C@@]21C [TIB, tibolone, reference compound] | C4-2 cells | 3.12 |

----------
pIC50 listing for selected molecules.
experiment: in vitro; conditions: human
pIC50: −log10 of the molar value.

| molecule | pIC50 |
| --- | --- |
| C#C[C@]1(O)CC[C@H]2[C@@H]3CCC4=CC(=O)CC[C@]4(C)[C@H]3CC[C@@]21C | 4.74 |
| C#C[C@]1(O)CC[C@H]2[C@@H]3CCC4=CC(=O)CC[C@@H]4[C@H]3CC[C@@]21CC [LEV, levonorgestrel, reference compound] | 4.22 |
| C#C[C@]1(O)CC[C@H]2[C@@H]3[C@H](C)CC4=C(CCC(=O)C4)[C@H]3CC[C@@]21C [TIB, tibolone, reference compound] | 4.63 |
| C#C[C@]1(O)CC[C@H]2[C@@H]3CCC4=CC(=O)CC[C@@H]4[C@H]3CC[C@@]21C [NOR, norethisterone, reference compound] | 4.06 |

----------
pIC50 listing for selected compounds.
system: RWPE-1 cells; test: Cytotoxicity in normal prostatic epithelial RWPE-1 cells; details: read-out: cytotoxicity IC50; RWPE-1 normal cells
pIC50: −log10 of the molar value.

| compound | pIC50 |
| --- | --- |
| C#C[C@@]1(O)CC[C@@H]2[C@H]3[C@@H](CC[C@@]21C)[C@H]1CCC(=O)C=C1C[C@@H]3C [Compound 1] | 4.26 |
| C[C@H]1CC2=CC(=O)CC[C@@H]2[C@@H]2CC[C@@]3(C)[C@H](CC[C@]3(O)C#Cc3ccccc3N)[C@@H]21 [Compound 15] | 4.87 |
| CC[C@@]1(O)CC[C@@H]2[C@H]3[C@@H](CC[C@@]21C)[C@H]1CCC(=O)CC1C[C@@H]3C (stereo partly drawn) [Compound 13] | 4.75 |
